# Conditions: in n-hexane, 293.2 K
Measurement Type: solubility (mole fraction)

Here are 2 molecules together with their reported answers.
[[record]]
molecule = "Cc1cccc(Nc2nc(CC(C)O)ns2)c1 (stereo unspecified)"
reported = "2.49e-05"

[[record]]
molecule = "CC(O)Cc1nsc(Nc2ccc(Cl)cc2)n1 (stereo unspecified)"
reported = "3.5e-06"


[a] Cc1ccc(Cl)cc1Nc1nc(CC(C)O)ns1 (stereo unspecified)
[b] Cc1ccc(Nc2nc(CC(C)O)ns2)cc1Cl (stereo unspecified)
[c] CC(O)Cc1nsc(Nc2cccc(Cl)c2)n1 (stereo unspecified)
[d] COc1ccc(Nc2nc(CC(C)O)ns2)cc1 (stereo unspecified)
Exam item: Rank order required: solubility (mole fraction), descending. I'd appreciate it if you listed the labels in the requested order.
Marked response: a, d, c, b
(a: 2.95e-05, d: 9.2e-06, c: 5.5e-06, b: 3.2e-06)

====

# Conditions: in n-octanol, 303.2 K
Measurement Type: solubility (mole fraction)

[[record]]
compound = "CC(O)Cc1nsc(Nc2cccc(Cl)c2)n1 (stereo not given)"
reported = 0.0729


[1] COc1ccc(Nc2nc(CC(C)O)ns2)cc1 (stereo not given)
[2] Cc1cccc(Nc2nc(CC(C)O)ns2)c1 (stereo not given)
[3] Cc1ccc(Nc2nc(CC(C)O)ns2)cc1Cl (stereo not given)
[4] CC(O)Cc1nsc(Nc2ccc(Cl)cc2)n1 (stereo not given)
Exam item: Rank order required: solubility (mole fraction), descending. I'd appreciate it if you listed the labels in the requested order.
Marked response: 1, 2, 4, 3
(1: 0.0694, 2: 0.038, 4: 0.0245, 3: 0.0166)

====

# Conditions: in n-hexane, 303.2 K
Measurement Type: solubility (mole fraction)

Here are 2 molecules together with their reported answers.
[[record]]
molecule = "Cc1ccc(Cl)cc1Nc1nc(CC(C)O)ns1 (stereo unspecified)"
reported = "4.73e-05"

[[record]]
molecule = "CC(O)Cc1nsc(Nc2ccc(Cl)cc2)n1 (stereo unspecified)"
reported = "6.9e-06"


[1] CC(O)Cc1nsc(Nc2cccc(Cl)c2)n1 (stereo unspecified)
[2] Cc1ccc(Nc2nc(CC(C)O)ns2)cc1Cl (stereo unspecified)
[3] Cc1cccc(Nc2nc(CC(C)O)ns2)c1 (stereo unspecified)
[4] COc1ccc(Nc2nc(CC(C)O)ns2)cc1 (stereo unspecified)
Exam item: Rank order required: solubility (mole fraction), descending. I'd appreciate it if you listed the labels in the requested order.
Marked response: 3, 4, 1, 2
(3: 4.59e-05, 4: 2.02e-05, 1: 1.32e-05, 2: 6.2e-06)

====

# Conditions: in n-octanol, 290.7 K
Measurement Type: solubility (mole fraction)
Keep it simple and answer with nothing but the number.

Exam item: Please report the recorded solubility (mole fraction) for Cc1ccc(Cl)cc1Nc1nc(CC(C)O)ns1 (stereo unspecified) .
Marked response: 0.0465

====

# Conditions: in n-octanol, 288.2 K
Measurement Type: solubility (mole fraction)
Keep it simple and answer with nothing but the number.

Exam item: Please report the recorded solubility (mole fraction) for Cc1ccc(Cl)cc1Nc1nc(CC(C)O)ns1 (stereo unspecified) .
Marked response: 0.0441

====

# Conditions: in n-hexane, 310.2 K
Measurement Type: solubility (mole fraction)

Here are 2 compounds together with their reported answers.
[[record]]
compound = "Cc1cccc(Nc2nc(CC(C)O)ns2)c1 (stereo unspecified)"
reported = "5.6e-05"

[[record]]
compound = "CC(O)Cc1nsc(Nc2ccc(Cl)cc2)n1 (stereo unspecified)"
reported = "1.13e-05"


[a] COc1ccc(Nc2nc(CC(C)O)ns2)cc1 (stereo unspecified)
[b] Cc1ccc(Nc2nc(CC(C)O)ns2)cc1Cl (stereo unspecified)
[c] Cc1ccc(Cl)cc1Nc1nc(CC(C)O)ns1 (stereo unspecified)
[d] CC(O)Cc1nsc(Nc2cccc(Cl)c2)n1 (stereo unspecified)
Exam item: Rank order required: solubility (mole fraction), descending. I'd appreciate it if you listed the labels in the requested order.
Marked response: c, a, d, b
(c: 5.55e-05, a: 3.51e-05, d: 2.4e-05, b: 9.2e-06)

====

# Conditions: in n-hexane, 298.2 K
Measurement Type: solubility (mole fraction)

[[record]]
compound = "Cc1cccc(Nc2nc(CC(C)O)ns2)c1 (stereo unspecified)"
reported = "3.4e-05"

[[record]]
compound = "Cc1ccc(Cl)cc1Nc1nc(CC(C)O)ns1 (stereo unspecified)"
reported = "3.79e-05"

[[record]]
compound = "CC(O)Cc1nsc(Nc2ccc(Cl)cc2)n1 (stereo unspecified)"
reported = "5.2e-06"

[[record]]
compound = "Cc1ccc(Nc2nc(CC(C)O)ns2)cc1Cl (stereo unspecified)"
reported = "4.8e-06"


[A] COc1ccc(Nc2nc(CC(C)O)ns2)cc1 (stereo unspecified)
[B] CC(O)Cc1nsc(Nc2cccc(Cl)c2)n1 (stereo unspecified)
Exam item: Given the two records A and B , choose the one whose solubility (mole fraction) value is lower. Refer to your chosen item by its label in the answer.
Marked response: B

====

# Conditions: in n-octanol, 298.2 K
Measurement Type: solubility (mole fraction)

Here are 4 compounds together with their reported answers.
[[record]]
compound = "Cc1ccc(Cl)cc1Nc1nc(CC(C)O)ns1 (stereo unspecified)"
reported = 0.054

[[record]]
compound = "CC(O)Cc1nsc(Nc2ccc(Cl)cc2)n1 (stereo unspecified)"
reported = 0.0218

[[record]]
compound = "Cc1cccc(Nc2nc(CC(C)O)ns2)c1 (stereo unspecified)"
reported = 0.0355

[[record]]
compound = "COc1ccc(Nc2nc(CC(C)O)ns2)cc1 (stereo unspecified)"
reported = 0.0627


[P] Cc1ccc(Nc2nc(CC(C)O)ns2)cc1Cl (stereo unspecified)
[Q] CC(O)Cc1nsc(Nc2cccc(Cl)c2)n1 (stereo unspecified)
Exam item: Given the two records P and Q , choose the one whose solubility (mole fraction) value is lower. Refer to your chosen item by its label in the answer.
Marked response: P
(P: 0.0134, Q: 0.0633)

====

# Conditions: in n-octanol, 310.2 K
Measurement Type: solubility (mole fraction)

[[record]]
molecule = "COc1ccc(Nc2nc(CC(C)O)ns2)cc1 (stereo not given)"
measurement_type = "solubility (mole fraction)"
reported = 0.101

[[record]]
molecule = "CC(O)Cc1nsc(Nc2ccc(Cl)cc2)n1 (stereo not given)"
measurement_type = "solubility (mole fraction)"
reported = 0.029


[a] Cc1cccc(Nc2nc(CC(C)O)ns2)c1 (stereo not given)
[b] Cc1ccc(Nc2nc(CC(C)O)ns2)cc1Cl (stereo not given)
[c] CC(O)Cc1nsc(Nc2cccc(Cl)c2)n1 (stereo not given)
Exam item: Put the items in order so that reported solubility (mole fraction) rises from first to last. I'd appreciate it if you listed the labels in the requested order.
Marked response: b, a, c

====

# Conditions: in n-octanol, 315.2 K
Measurement Type: solubility (mole fraction)

Here are 3 molecules together with their reported answers.
[[record]]
molecule = "Cc1ccc(Nc2nc(CC(C)O)ns2)cc1Cl (stereo not given)"
reported = 0.0251

[[record]]
molecule = "COc1ccc(Nc2nc(CC(C)O)ns2)cc1 (stereo not given)"
reported = 0.121

[[record]]
molecule = "CC(O)Cc1nsc(Nc2ccc(Cl)cc2)n1 (stereo not given)"
reported = 0.035


[P] CC(O)Cc1nsc(Nc2cccc(Cl)c2)n1 (stereo not given)
[Q] Cc1cccc(Nc2nc(CC(C)O)ns2)c1 (stereo not given)
Exam item: Given the two records P and Q , choose the one whose solubility (mole fraction) value is lower. Refer to your chosen item by its label in the answer.
Marked response: Q

====

# Conditions: in n-hexane, 315.2 K
Measurement Type: solubility (mole fraction)

Here are 4 compounds together with their reported answers.
[[record]]
compound = "CC(O)Cc1nsc(Nc2cccc(Cl)c2)n1 (stereo unspecified)"
measurement_type = "solubility (mole fraction)"
reported = "3.62e-05"

[[record]]
compound = "CC(O)Cc1nsc(Nc2ccc(Cl)cc2)n1 (stereo unspecified)"
measurement_type = "solubility (mole fraction)"
reported = "1.73e-05"

[[record]]
compound = "Cc1ccc(Nc2nc(CC(C)O)ns2)cc1Cl (stereo unspecified)"
measurement_type = "solubility (mole fraction)"
reported = "1.28e-05"

[[record]]
compound = "Cc1ccc(Cl)cc1Nc1nc(CC(C)O)ns1 (stereo unspecified)"
measurement_type = "solubility (mole fraction)"
reported = "6.64e-05"


[I] Cc1cccc(Nc2nc(CC(C)O)ns2)c1 (stereo unspecified)
[II] COc1ccc(Nc2nc(CC(C)O)ns2)cc1 (stereo unspecified)
Exam item: Given the two records I and II , choose the one whose solubility (mole fraction) value is lower. Refer to your chosen item by its label in the answer.
Marked response: II
